These data points were gathered from paper PMC4717123.

SYSTEM NAME: CYP6P4 (Anopheles arabiensis, UniProt A0A0M4KNY0)
Sequence (A0A0M4KNY0 1-506): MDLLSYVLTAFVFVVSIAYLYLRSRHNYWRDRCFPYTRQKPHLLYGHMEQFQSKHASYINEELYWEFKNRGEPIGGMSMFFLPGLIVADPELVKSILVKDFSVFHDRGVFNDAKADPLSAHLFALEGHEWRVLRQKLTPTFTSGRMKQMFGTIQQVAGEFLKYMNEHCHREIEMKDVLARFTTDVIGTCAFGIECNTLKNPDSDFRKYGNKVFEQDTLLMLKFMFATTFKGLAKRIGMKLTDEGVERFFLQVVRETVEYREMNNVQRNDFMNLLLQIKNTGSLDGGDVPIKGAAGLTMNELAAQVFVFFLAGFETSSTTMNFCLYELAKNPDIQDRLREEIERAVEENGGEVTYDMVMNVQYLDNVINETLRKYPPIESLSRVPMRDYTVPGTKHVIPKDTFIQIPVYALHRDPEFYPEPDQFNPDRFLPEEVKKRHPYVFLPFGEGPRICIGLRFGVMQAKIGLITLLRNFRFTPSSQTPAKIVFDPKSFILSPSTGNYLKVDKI
Sequence (Q86QH5 1-679 partner): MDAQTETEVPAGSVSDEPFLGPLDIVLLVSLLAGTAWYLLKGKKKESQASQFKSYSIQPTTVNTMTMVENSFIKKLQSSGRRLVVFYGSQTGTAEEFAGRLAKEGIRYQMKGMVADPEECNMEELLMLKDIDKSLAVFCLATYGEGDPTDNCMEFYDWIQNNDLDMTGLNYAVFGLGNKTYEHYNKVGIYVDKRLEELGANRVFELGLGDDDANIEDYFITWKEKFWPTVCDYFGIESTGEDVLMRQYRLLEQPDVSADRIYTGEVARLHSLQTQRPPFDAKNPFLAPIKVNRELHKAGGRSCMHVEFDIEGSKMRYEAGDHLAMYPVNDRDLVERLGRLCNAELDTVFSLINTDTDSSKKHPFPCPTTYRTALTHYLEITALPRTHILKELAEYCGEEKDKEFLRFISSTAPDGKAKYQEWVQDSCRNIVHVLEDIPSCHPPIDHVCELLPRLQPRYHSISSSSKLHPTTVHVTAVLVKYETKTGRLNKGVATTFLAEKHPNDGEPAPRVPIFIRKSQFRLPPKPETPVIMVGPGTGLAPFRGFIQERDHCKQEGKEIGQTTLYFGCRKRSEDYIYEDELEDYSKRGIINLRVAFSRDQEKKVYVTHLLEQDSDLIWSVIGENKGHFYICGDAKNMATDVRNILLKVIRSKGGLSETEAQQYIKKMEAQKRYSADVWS
MEASUREMENT DESCRIPTION: In vitro metabolism assays with insecticides (percentage depletion, HPLC)
Assay type: in vitro ADME
MEASUREMENT SETUP: 20 μM insecticide, 1 h incubation, 30 °C, +NADPH vs -NADPH
ASSAY METRIC: Percentage depletion

CNC(=O)Oc1cccc2c1OC(C)(C)O2 ... No activities
Cc1c(COC(=O)[C@@H]2[C@H](/C=C(\Cl)C(F)(F)F)C2(C)C)cccc1-c1ccccc1 (racemic) ... 49.2%
CNC(=O)Oc1ccccc1OC(C)C ... No activities
CCOC(=O)CC(SP(=S)(OC)OC)C(=O)OCC (stereo not shown) ... No activities

###

SYSTEM NAME: CYP6P4 (Anopheles arabiensis, UniProt A0A0M4KNY0)
MEASUREMENT DESCRIPTION: In vitro metabolism assays with insecticides (percentage depletion, HPLC)
Format: in vitro ADME
MEASUREMENT SETUP: Anopheles arabiensis, recombinant cyp6p4; 20 μM insecticide, 1 h incubation, 30 °C, +NADPH vs -NADPH
ASSAY METRIC: metabolised at 1 h, 20 µM (%)
Please give a number only; it is taken to be in %.

Field: example entries. Status: answers known.
CC1(C)C(C=C(Cl)Cl)C1C(=O)OCc1cccc(Oc2ccccc2)c1 (stereo not shown) ... 70.5
CCOc1ccc(C(C)(C)COCc2cccc(Oc3ccccc3)c2)cc1 ... 24.9

Consider the compound CC1(C)[C@H](C(=O)O[C@H](C#N)c2cccc(Oc3ccccc3)c2)[C@@H]1/C=C(\Cl)C(F)(F)F (racemic) and give its measured metabolised at 1 h, 20 µM.
57.8
